Here's a batch of compounds along with measured MIC for Salmonella typhimurium (ATCC 13311).

Here are 9 compounds together with their reported answers.
CCCCCOc1ccnc(SCc2nc3ccccc3[nH]2)c1C.Cl: > 100 µg/mL
COCCCCCCCCOc1ccnc(SCc2nc3ccccc3[nH]2)c1C.Cl: > 100 µg/mL
COCCOCCOc1ccnc(SCc2nc3ccccc3[nH]2)c1C.Cl: > 100 µg/mL
CCCOc1ccnc(SCc2nc3ccccc3[nH]2)c1C.Cl: > 100 µg/mL
Cc1c(OCCCCCCCCO)ccnc1SCc1nc2ccccc2[nH]1: > 100 µg/mL
COCCCCSc1ccnc(SCc2nc3ccccc3[nH]2)c1C.Cl: > 100 µg/mL
CC[C@H]1OC(=O)[C@H](C)[C@@H](O[C@H]2C[C@@](C)(OC)[C@@H](O)[C@H](C)O2)[C@H](C)[C@@H](O[C@@H]2O[C@H](C)C[C@H](N(C)C)[C@H]2O)[C@](C)(OC)C[C@@H](C)C(=O)[C@H](C)[C@@H](O)[C@]1(C)O [CAM, Clarithromycin, reference compound]: 25 µg/mL
CCOCCCOc1ccnc(SCc2nc3ccccc3[nH]2)c1C: > 100 µg/mL
Cc1c(SCCCCCCCCO)ccnc1SCc1nc2ccccc2[nH]1: > 100 µg/mL

We next turn to a different compound, shown below.
Input COCCCCCCCCSc1ccnc(SCc2nc3ccccc3[nH]2)c1C.Cl , output reported MIC.
> 100 µg/mL

---

# Tested on: Pseudomonas aeruginosa (ATCC 9027)
# test_description: Antibacterial test (MIC), comparison bacteria
# Assay type: cell-based
# test_settings: Gram negative
quantity_measured: minimum inhibitory concentration (MIC)

Examples from the recorded data:
CSc1ccnc(SCc2nc3ccccc3[nH]2)c1C.Cl: 100< μg/ml
CC1(C)S[C@@H]2[C@H](NC(=O)[C@H](N)c3ccc(O)cc3)C(=O)N2[C@H]1C(=O)O [AMPC, Amoxicillin, reference compound]: 100< μg/ml
CCCCCSc1ccnc(SCc2nc3ccccc3[nH]2)c1C: 100< μg/ml
CCCSc1ccnc(SCc2nc3ccccc3[nH]2)c1C.Cl: 100< μg/ml
Cc1c(SCCOCCOCC(F)(F)F)ccnc1SCc1nc2ccccc2[nH]1.Cl: 100< μg/ml

# next compound below
Determine from records and report minimum inhibitory concentration (MIC) for Cc1c(OCCOCCOCC(F)(F)F)ccnc1SCc1nc2ccccc2[nH]1.Cl
100< μg/ml

---

Please go through the items and note down their MIC.
# System: Helicobacter pylori (ATCC 43504)
# test_description: Antibacterial test (MIC) against Helicobacter pylori
# Assay type: cell-based
# test_settings: Helicobacter pylori, ATCC43504, 72 h, pH 7, Helicobacter pylori ATCC 43504; Columbia agar medium, 37° C., pH 7.0, cultured three days, MIC found on the fourth day; read-out: minimum inhibitory concentration (MIC)
# Protocol: ATCC43504 which was a standard bacterial strain was used as Helicobacter pylori (H. pylori) to perform the test in vitro in a Columbia agar medium. The bacteria were cultured at 37° C. and a pH of 7.0 for three days. The minimum inhibitory concentration (MIC, μg/ml) was found on the fourth day. Each sample was dissolved in 1% DMSO to use. […]
Answers are plain numbers, in µg/mL.

Please review the entries below; each comes with its answer.
COCCOCCOc1ccnc(SCc2nc3ccccc3[nH]2)c1C.Cl: 0.3
CCCCCOc1ccnc(SCc2nc3ccccc3[nH]2)c1C.Cl: 0.1
CCOCCCOc1ccnc(SCc2nc3ccccc3[nH]2)c1C: 0.1
COCCCCCCCCSc1ccnc(SCc2nc3ccccc3[nH]2)c1C.Cl: 0.1
CCCOc1ccnc(SCc2nc3ccccc3[nH]2)c1C.Cl: 0.3

Please turn your attention to the following entry.
Provide MIC value for the following compound: CC[C@H]1OC(=O)[C@H](C)[C@@H](O[C@H]2C[C@@](C)(OC)[C@@H](O)[C@H](C)O2)[C@H](C)[C@@H](O[C@@H]2O[C@H](C)C[C@H](N(C)C)[C@H]2O)[C@](C)(OC)C[C@@H](C)C(=O)[C@H](C)[C@@H](O)[C@]1(C)O [CAM, Clarithromycin, reference compound]
0.1
